Header: IC50 / Glutamate carboxypeptidase 2 (Homo sapiens) / multiple publications
Numeric only. Scale: nM

Incoming: Notebook: pull reported IC50 for Glutamate carboxypeptidase 2 (Homo sapiens), entry CC(C)(C)c1cc(CC(CCC(=O)NO)C(=O)O)cc(C(=O)O)c1 (stereo not shown)
Outgoing: 60

Incoming: Notebook: pull reported IC50 for Glutamate carboxypeptidase 2 (Homo sapiens), entry O=C(O)c1cccc(COc2cccc(CCS)c2C(=O)O)c1
Outgoing: 1

Incoming: Notebook: pull reported IC50 for Glutamate carboxypeptidase 2 (Homo sapiens), entry O=C(O)CCC(NC(=O)NC(CCCCNC(=O)C(Cc1ccc2ccccc2c1)NC(=O)c1ccc(CNC(=O)C(CNC(=O)c2ccc(F)nc2)S(=O)(=O)O)cc1)C(=O)O)C(=O)O (stereo not shown)
Outgoing: 14

Incoming: Notebook: pull reported IC50 for Glutamate carboxypeptidase 2 (Homo sapiens), entry CS(=O)(=O)c1ccc(CC(CCC(=O)NO)C(=O)O)cc1 (stereo not shown)
Outgoing: 3000

----------
Header: IC50 / Glutamate carboxypeptidase 2 (Homo sapiens, UniProt Q04609) / multiple publications
Answer format: number, then unit.

Incoming: Notebook: pull reported IC50 for Glutamate carboxypeptidase 2 (Homo sapiens, UniProt Q04609), entry O=C(O)c1ccccc1Cn1c(C(=O)O)c(CCS)c2ccccc21
Outgoing: 18.5 nM

Incoming: Notebook: pull reported IC50 for Glutamate carboxypeptidase 2 (Homo sapiens, UniProt Q04609), entry O=C(O)c1ccc(COc2cccc(CCS)c2C(=O)O)cc1Br
Outgoing: 18 nM

Incoming: Notebook: pull reported IC50 for Glutamate carboxypeptidase 2 (Homo sapiens, UniProt Q04609), entry O=C(O)c1c(CCS)cccc1OCc1ccccc1
Outgoing: 89.8 nM

Incoming: Notebook: pull reported IC50 for Glutamate carboxypeptidase 2 (Homo sapiens, UniProt Q04609), entry N[C@@H](CCC(=O)N[C@@H](CCOP(=O)(O)N[C@@H](CCC(=O)O)C(=O)O)C(=O)O)C(=O)O
Outgoing: 15 nM

Incoming: Notebook: pull reported IC50 for Glutamate carboxypeptidase 2 (Homo sapiens, UniProt Q04609), entry O=C(O)c1cc(Cn2c(C(=O)O)c(CCS)c3ccccc32)ccc1Br
Outgoing: 104 nM

----------
Header: pIC50 / Glutamate carboxypeptidase 2 (Homo sapiens, UniProt Q04609) / multiple publications
Quick note: pIC50 means taking -log10 of the concentration in moles per liter.

Incoming: Notebook: pull reported pIC50 for Glutamate carboxypeptidase 2 (Homo sapiens, UniProt Q04609), entry CCC(SCCCC(Cc1cccc(C(=O)O)c1)C(=O)O)C(=O)NO (stereo not drawn)
Outgoing: 5.40

Incoming: Notebook: pull reported pIC50 for Glutamate carboxypeptidase 2 (Homo sapiens, UniProt Q04609), entry O=C(O)c1c(CCS)cccc1OCc1cccc(Br)c1
Outgoing: 6.98

Incoming: Notebook: pull reported pIC50 for Glutamate carboxypeptidase 2 (Homo sapiens, UniProt Q04609), entry COc1ccc(COc2cccc(CCS)c2C(=O)O)cc1
Outgoing: 7.00

Incoming: Notebook: pull reported pIC50 for Glutamate carboxypeptidase 2 (Homo sapiens, UniProt Q04609), entry O=C(O)CC[C@H](NC(=O)N[C@@H](CCCCNC(=O)NCc1cn(CCOCC[18F])nn1)C(=O)O)C(=O)O
Outgoing: 7.24

Incoming: Notebook: pull reported pIC50 for Glutamate carboxypeptidase 2 (Homo sapiens, UniProt Q04609), entry O=C(O)c1c(CCS)cccc1OC(c1ccccc1)c1ccccc1
Outgoing: 4.45

Incoming: Notebook: pull reported pIC50 for Glutamate carboxypeptidase 2 (Homo sapiens, UniProt Q04609), entry COc1ccc(C(=O)O)c(Cn2c(C(=O)O)c(CCS)c3ccccc32)c1
Outgoing: 7.92

Incoming: Notebook: pull reported pIC50 for Glutamate carboxypeptidase 2 (Homo sapiens, UniProt Q04609), entry O=C(O)c1cc(Br)cc(COc2cccc(CCS)c2C(=O)O)c1
Outgoing: 9.05

Incoming: Notebook: pull reported pIC50 for Glutamate carboxypeptidase 2 (Homo sapiens, UniProt Q04609), entry O=CN(O)CCC(Oc1cccc(C(=O)O)c1)C(=O)O (stereo not drawn)
Outgoing: 4.18

Incoming: Notebook: pull reported pIC50 for Glutamate carboxypeptidase 2 (Homo sapiens, UniProt Q04609), entry O=C(O)c1c(CCS)c2ccccc2n1CCc1ccccc1
Outgoing: 4.36
